ASSAY PROTOCOL: Metabolic stability in CD1 mouse liver microsomes at 1 uM measured as compound remaining after 1 hr by LC/MS/MS analysis
Format: ADME, Microsome
TEST PARAMETERS: read-out: Stability
With a cut-off of 90%, any remaining at 1 h, 1 µM strictly below it is called met; any remaining at 1 h, 1 µM meeting it or above is called not met.

Some solved cases for reference:
- ENTRY SMILES: "O=[N+]([O-])c1cn2c(n1)OC[C@@H](OCCOc1ccc(OC(F)(F)F)cc1)C2"
  ASSIGNED CLASS: "met"
- ENTRY SMILES: "O=[N+]([O-])c1cn2c(n1)OC[C@@H](OCCCC#Cc1ccc(OC(F)(F)F)cc1)C2"
  ASSIGNED CLASS: "met"
- ENTRY SMILES: "O=[N+]([O-])c1cn2c(n1)OC[C@@H](OCC#Cc1ccc(-c3ccc(OC(F)(F)F)cc3)cc1)C2"
  ASSIGNED CLASS: "met"
- ENTRY SMILES: "O=[N+]([O-])c1cn2c(n1)OC[C@@H](OC/C=C/c1ccc(-c3ccc(OC(F)(F)F)cc3)cc1)C2"
  ASSIGNED CLASS: "not met"
- ENTRY SMILES: "O=[N+]([O-])c1cn2c(n1)OC[C@@H](OCc1ccc(OCc3ccccc3)cc1)C2"
  ASSIGNED CLASS: "met"

Next, consider the following molecule.
Ask | In plain terms, does O=[N+]([O-])c1cn2c(n1)OC[C@@H](OCCOc1ccc(-c3ccc(OC(F)(F)F)cc3)cc1)C2 come in under 90% for remaining at 1 h, 1 µM?
Reply | met
